Biological target: liver carnitine palmitoyl transferase 1 (L-CPT1) (Homo sapiens, UniProt P50416)
Sequence (P50416 1-773): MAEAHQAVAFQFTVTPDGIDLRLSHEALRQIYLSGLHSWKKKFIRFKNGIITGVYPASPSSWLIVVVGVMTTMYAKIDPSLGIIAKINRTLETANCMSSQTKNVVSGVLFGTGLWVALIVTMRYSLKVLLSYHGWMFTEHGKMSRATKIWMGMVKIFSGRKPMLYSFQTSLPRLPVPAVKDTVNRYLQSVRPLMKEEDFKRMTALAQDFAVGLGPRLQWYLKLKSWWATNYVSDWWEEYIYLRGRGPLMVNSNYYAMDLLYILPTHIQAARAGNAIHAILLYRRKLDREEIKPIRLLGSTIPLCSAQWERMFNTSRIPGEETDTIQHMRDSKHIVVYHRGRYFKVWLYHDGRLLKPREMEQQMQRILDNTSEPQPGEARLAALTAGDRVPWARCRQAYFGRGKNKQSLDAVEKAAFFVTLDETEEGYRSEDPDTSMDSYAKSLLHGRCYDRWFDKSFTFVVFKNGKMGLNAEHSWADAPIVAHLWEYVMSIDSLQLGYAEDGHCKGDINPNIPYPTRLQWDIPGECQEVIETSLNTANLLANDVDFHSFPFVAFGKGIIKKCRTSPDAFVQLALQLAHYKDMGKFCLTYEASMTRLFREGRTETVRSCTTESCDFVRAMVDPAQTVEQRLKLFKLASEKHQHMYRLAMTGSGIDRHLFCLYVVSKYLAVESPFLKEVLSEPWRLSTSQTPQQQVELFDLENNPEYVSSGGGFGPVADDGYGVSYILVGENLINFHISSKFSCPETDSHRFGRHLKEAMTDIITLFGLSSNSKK
Assay: L-CPT1 inhibition, spectrophotometric CPT activity assay with DTNB (Ellman's reagent)
Conditions: human liver CPT1 expressed in P. pastoris, cell extracts; carnitine 500 μM, palmitoyl-CoA 80 μM, DTNB 300 μM, pH 7.4
pIC50 reference
The value called pIC50 is obtained by taking minus log10 of the concentration in mol/L.

# annotated cases, reported pIC50 shown
molecule	numeric-result
O=C(O)c1cccc(-c2csc([C@H]3CCCCN3C(=O)COc3ccccc3)n2)c1 [Example 44]	7.62
O=C(COc1ccccc1)N1CCCC[C@@H]1c1csc(-c2ccccn2)n1	6.76

Q: Reported pIC50, molecule `O=C(COc1ccccc1)N1CCCC[C@@H]1c1nc(-c2ccc(Cl)cc2)cs1` : ____
Result: 5.85

Q: Reported pIC50, molecule O=C(O)c1cccc(-c2csc([C@H]3CCCCN3C(=O)COc3ccccc3)n2)c1 [Example 5] : ____
Result: 7.47

Attribution: patent US8039487B2
